Assay: Antagonist activity at GST-tagged human recombinant FXRalphaLBD expressed in Escherichia coli BL21 cells assessed as inhibition of CDCA-induced SRC-1 co-activator association at 40 uM by HTRF assay
Format: functional
// map inhibition at 40 µM onto a label; ranges label 0 = under 10%, label 1 = from 10% up to 30%, label 2 = 30% and over

COc1ccc(/C=C2\C(=O)N(c3cccc([N+](=O)[O-])c3)N=C2C)c2ccccc12 ... label 1
CCOc1ccc(/C=C2\C(=O)N(c3ccc(C(C)C)cc3)N=C2C)cc1OC ... label 0
CCOc1ccc(/C=C2\C(=O)N(c3cc(Cl)cc(Cl)c3)N=C2C)cc1OC ... label 0
CCOc1ccc(/C=C2\C(=O)N(c3cc(C(F)(F)F)cc(C(F)(F)F)c3)N=C2C)cc1OC ... label 0
CC1=NN(c2ccc([N+](=O)[O-])cc2)C(=O)/C1=C(/C)c1ccc(Cl)cc1 ... label 1
CCOc1ccc(/C=C2\C(=O)N(c3ccc(C(F)(F)F)cc3)N=C2C)cc1OC ... label 0
CCOC(=O)c1cccc(N2N=C(C)/C(=C/c3ccc(OCC)c(OC)c3)C2=O)c1 ... label 0
CCOc1ccc(/C=C2\C(=O)N(c3cccc(C(=O)O)c3)N=C2C)cc1OC ... label 2

Band of `COc1cc(/C=C2\C(=O)N(c3cccc(C(=O)O)c3)N=C2C)ccc1O` ?
label 0

Band of `CC1=NN(c2ccccc2)C(=O)/C1=C\c1ccccc1` ?
label 1

Band of `CC1=NN(c2cccc(C(=O)O)c2)C(=O)/C1=C\c1ccc(O)c(O)c1` ?
label 1

Band of `CCOc1ccc(/C=C2\C(=O)N(c3ccccc3F)N=C2C)cc1OC` ?
label 0

Band of `CCOc1ccc(/C=C2\C(=O)N(c3ccc([N+](=O)[O-])cc3)N=C2C)cc1OC` ?
label 1

Band of `CCOc1ccc(/C=C2\C(=O)N(c3cccc([N+](=O)[O-])c3)N=C2C)cc1OC` ?
label 0

Band of `CCOc1ccc(/C=C2\C(=O)N(c3c(F)c(F)c(F)c(F)c3F)N=C2C)cc1OC` ?
label 2

Band of `COc1cc(/C=C2\C(=O)N(c3cccc(C(=O)O)c3)N=C2C)ccc1OC(C)C` ?
label 0

Band of `CC1=NN(c2cccc(C(=O)O)c2)C(=O)/C1=C\C=C\c1ccccc1` ?
label 2

Band of `CCOc1ccc(/C=C2\C(=O)N(c3cccc(C(F)(F)F)c3)N=C2C)cc1OC` ?
label 0

Band of `COc1cc(/C=C2\C(=O)N(c3cccc([N+](=O)[O-])c3)N=C2C(C)C)ccc1O` ?
label 1

---

Assay: Antagonist activity at FXRalpha/RXRalpha expressed in HEK293T cells co-expressing GAL4 DBD assessed as inhibition of CDCA-induced transactivation after 18 hrs by luciferase reporter gene assay
Type: functional, cell-based
Settings: Homo sapiens, HEK-293T
MEASUREMENT_NAME: pIC50
Numbers only, as −log10 of the molar value.

Summary for this compound, `COc1cc(/C=C2\C(=O)N(c3cccc([N+](=O)[O-])c3)N=C2c2ccccc2)ccc1O` : pIC50 is 4.59

---

Assay: Binding affinity to FXRalphaLBD assessed as fluorescence quenching after 1 hr
MEASUREMENT_NAME: pKd
Answers are plain numbers, as −log10 of the molar value.

Summary for this molecule, `COc1cc(/C=C2\C(=O)N(c3cccc([N+](=O)[O-])c3)N=C2c2ccccc2)ccc1O` : pKd is 4.64

---

Assay: Antagonist activity at GST-tagged human recombinant FXRalphaLBD expressed in Escherichia coli BL21 cells assessed as inhibition of CDCA-induced SRC-1 co-activator association at 40 uM by HTRF assay
Type: functional
If the reported inhibition at 40 µM equals or exceeds 60%, assign 1 (yes). If not, assign 0 (no).

Some solved cases for reference:
CCOc1ccc(/C=C2\C(=O)N(c3ccc(Cl)c(Cl)c3)N=C2C)cc1OC ... 0 (no)
CC1=NN(c2cccc([N+](=O)[O-])c2)C(=O)/C1=C\c1ccc(C)s1 ... 0 (no)
COc1cc(/C=C2\C(=O)N(c3cccc(C(=O)O)c3)N=C2C)ccc1OCc1ccccc1 ... 0 (no)
CCCCCOc1ccc(/C=C2\C(=O)N(c3cccc(C(=O)O)c3)N=C2C)cc1OC ... 0 (no)
COc1cc(/C=C2\C(=O)N(c3cccc([N+](=O)[O-])c3)N=C2c2ccccc2)ccc1O ... 1 (yes)

Next item in the queue.
Please indicate if the recorded inhibition at 40 µM for `CC1=NN(c2ccccc2)C(=O)/C1=C\c1ccc(Br)cc1` meets or exceeds 60%.
1 (yes)

---

Experiment: Oral bioavailability in Sprague-Dawley rat at 50 mg/kg by LC-MS/MS analysis
Format: ADME, organism-based
Details: in vivo
MEASUREMENT_NAME: bioavailability

Summary for this compound, `COc1cc(/C=C2\C(=O)N(c3cccc([N+](=O)[O-])c3)N=C2c2ccccc2)ccc1O` : bioavailability is < 5%

Ref: ChEMBL document CHEMBL2169822
